Experiment: Plasma protein binding
Assay type: in vitro ADME
MEASURED_QUANTITY: fraction unbound

Identify fraction unbound associated with the compound CCN(c1cc(-c2ccc(CN3CCOCC3)cc2)cc(C(=O)NCc2c(C)cc(C)[nH]c2=O)c1C)C1CCOCC1 0.009
